ASSAYED_SYSTEM: T1, Fus1, P11710
T1 sequence (P11710 432-512, looked up): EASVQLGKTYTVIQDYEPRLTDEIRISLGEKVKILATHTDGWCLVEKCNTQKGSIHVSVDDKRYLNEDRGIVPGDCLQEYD
ASSAY_PROTOCOL: SPOT array
CONDITION_CONTEXT: median of control spots 1200
Exam item: assign T to entries whose SPOT intensity is below 5 and F to entries at or above 5. Note that a value of exactly 5 receives F.

EREKALPPIPFTTTL ... T
DDEDVPPQLPTRTKS ... T
QPWTDQFEKLEKEVS ... T
AERNYAPRLPRRETS ... T

Would you kindly verify if SPOT intensity of FIRKRAPTPPAPSRS is strictly less than 5?
F

SPOT intensity under 5? Item: RAPPPVPKKPSSRIA
T

A record lists HHKRRPTTIDVPGLT . Is its SPOT intensity below 5?
F

Hi there! Is SPOT intensity for RTIRKLPLMSLSEYF below 5, do you know?
F

Input KTKQQKPAIPQKKSF ; condition: SPOT intensity strictly below 5. Does it hold?
T

# strict comparison: is reported SPOT intensity < 5? input = SSSSTPPTLPPRRIE
T

Consider SPLGAPPPPPHKDHL . Does its SPOT intensity lie strictly below 5?
T
